Target: FAAH (Mus musculus, UniProt O08914)
Construct: Proteomes (mouse brain membrane fraction or cell lysates); from tissue; host or cells: mouse brain membrane fraction (or cell lysates, not specified)
Sequence (O08914 whole entry): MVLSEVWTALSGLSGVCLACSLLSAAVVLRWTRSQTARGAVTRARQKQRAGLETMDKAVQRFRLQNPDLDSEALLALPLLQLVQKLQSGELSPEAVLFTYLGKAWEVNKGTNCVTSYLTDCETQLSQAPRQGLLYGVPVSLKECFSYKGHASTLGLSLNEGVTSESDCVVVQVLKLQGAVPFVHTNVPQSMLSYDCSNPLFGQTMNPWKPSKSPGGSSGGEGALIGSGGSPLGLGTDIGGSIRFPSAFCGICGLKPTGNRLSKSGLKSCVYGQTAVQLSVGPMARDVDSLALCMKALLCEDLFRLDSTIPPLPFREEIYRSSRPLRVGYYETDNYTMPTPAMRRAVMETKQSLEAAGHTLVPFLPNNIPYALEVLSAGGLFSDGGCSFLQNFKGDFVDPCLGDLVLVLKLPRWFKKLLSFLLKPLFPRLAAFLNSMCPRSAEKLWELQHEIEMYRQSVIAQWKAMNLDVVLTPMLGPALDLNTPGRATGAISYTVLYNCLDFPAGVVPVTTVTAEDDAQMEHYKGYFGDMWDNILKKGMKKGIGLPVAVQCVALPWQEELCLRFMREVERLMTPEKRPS
Test: In vitro competitive activity-based protein profiling (gel-based, FP-Rh or HT-01 probe)
Assay type: biochemical
Settings: 10 μM inhibitor; read-out: % Inhibition at 10 μM, B = FAAH
Description: In Vitro Competitive Activity-Based Protein Profiling. Proteomes (mouse brain membrane fraction or cell lysates) (50 μL, 1.0 mg/mL total protein concentration) were preincubated with varying concentrations of inhibitors at 37° C. […] Following gel imaging, serine hydrolase activity was determined by measuring fluorescent intensity of gel bands corresponding to MAGL, ABHD6, FAAH, and PLA2G7 using ImageJ 1.43u software.
Entries and their inhibition at 10 µM values follow.

Known inhibition at 10 µM results, listed for orientation:
compound	inhibition at 10 µM
CC(C)(C)OC(=O)N1CCCN(C(=O)n2cc(C#N)cn2)CC1 [Example 27]	> 75%
O=C(N1CCN(Cc2c(N3CCCC3)cccc2C(F)(F)F)CC1)n1cc(C(F)(F)F)cn1 [Example 110]	> 75%
CN(CCN(C)C(=O)n1cc(Cl)cn1)C(=O)c1ccccc1 [Example 194]	> 75%
COc1ccccc1-c1ccc(-c2cnn(C(=O)N3CCCC3)c2)cc1 [Example 107]	< 25%
CS(=O)(=O)N1CCCN(C(=O)n2cc(Cl)cn2)CC1 [Example 189]	> 75%

Query: Endpoint output: inhibition at 10 µM of Cc1cccc(N2CCN(C(=O)n3cc(C(F)(F)F)cn3)CC2)c1 [Example 231] . Value?
Response: > 75%

Query: Lookup Cc1cnn(C(=O)N2CCN(Cc3ccc(-c4ccccc4)cc3)CC2)c1 [Example 23]
Response: 25 to 75%

Query: Lookup N#Cc1cnn(C(=O)N2CCN(Cc3ccc(-c4ccccc4)cc3)CC2)c1 [Example 24]
Response: > 75%

Query: Lookup CC(C)c1cnn(C(=O)N2CCN(Cc3c(N4CCCC4)cccc3C(F)(F)F)CC2)c1 [Example 112]
Response: < 25%

###

biological target: ABHD6 (Mus musculus); construct: Proteomes (mouse brain membrane fraction or cell lysates); from tissue; host or cells: mouse brain membrane fraction (or cell lysates, not specified); experiment: In vitro competitive activity-based protein profiling (gel-based, FP-Rh or HT-01 probe); format: biochemical; settings: 1 μM inhibitor; read-out: % Inhibition at 1 μM, C = ABHD6
Sequence (Q8R2Y0 whole entry): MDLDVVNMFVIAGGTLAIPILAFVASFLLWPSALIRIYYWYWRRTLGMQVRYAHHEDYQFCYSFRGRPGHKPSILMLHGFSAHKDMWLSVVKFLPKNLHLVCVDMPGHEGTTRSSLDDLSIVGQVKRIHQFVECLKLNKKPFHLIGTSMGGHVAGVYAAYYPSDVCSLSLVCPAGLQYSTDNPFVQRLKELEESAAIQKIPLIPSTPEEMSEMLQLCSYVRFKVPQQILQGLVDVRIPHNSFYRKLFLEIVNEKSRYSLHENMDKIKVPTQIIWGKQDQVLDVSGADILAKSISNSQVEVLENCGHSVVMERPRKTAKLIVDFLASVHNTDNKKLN
recorded.endpoint: inhibition at 1 µM

compound	recorded.endpoint	result
CN1CCN(C(=O)n2cc(C#N)cn2)CC1 [Example 175]	inhibition at 1 µM	> 75%

Query: Endpoint output: inhibition at 1 µM of Cc1cc(N2CCN(C(=O)n3cc(Cl)cn3)CC2)c2ccccc2n1 [Example 208] . Value?
Response: > 75%

Query: Lookup Cc1cnn(C(=O)N2CCCN(C(=O)OC(C)(C)C)CC2)c1 [Example 26]
Response: 25 to 75%

Query: Lookup O=C(N1CCN(C(c2ccc(Cl)cc2)c2ccc(Cl)cc2)CC1)n1cc(-c2ccccc2)cn1 [Example 119]
Response: < 25%

###

Biological target: PLA2G7 (Mus musculus)
Construct: Proteomes (mouse brain membrane fraction or cell lysates); from tissue; host or cells: mouse brain membrane fraction (or cell lysates, not specified)
Sequence (Q60963 22-440): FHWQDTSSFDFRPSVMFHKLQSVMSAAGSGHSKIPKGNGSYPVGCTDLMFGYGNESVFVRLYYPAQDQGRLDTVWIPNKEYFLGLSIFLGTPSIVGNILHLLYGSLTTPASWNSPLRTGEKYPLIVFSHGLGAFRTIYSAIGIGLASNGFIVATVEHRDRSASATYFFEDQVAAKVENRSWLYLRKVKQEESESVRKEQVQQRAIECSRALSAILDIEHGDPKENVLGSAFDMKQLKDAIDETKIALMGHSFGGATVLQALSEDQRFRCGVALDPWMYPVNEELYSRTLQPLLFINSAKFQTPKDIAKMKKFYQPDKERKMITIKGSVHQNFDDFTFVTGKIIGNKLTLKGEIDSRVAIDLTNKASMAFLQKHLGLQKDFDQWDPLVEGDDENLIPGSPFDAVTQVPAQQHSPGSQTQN
Test: In vitro competitive activity-based protein profiling (gel-based, FP-Rh or HT-01 probe)
Assay type: biochemical
Conditions: 1 μM inhibitor; gel-based competitive ABPP; read-out: % Inhibition at 1 μM, D = PLA2G7
recorded.endpoint: inhibition at 1 µM

Known inhibition at 1 µM results, listed for orientation:
structure.as.smiles	result
N#Cc1cnn(C(=O)N2CCN(Cc3ccc(C(=O)N4CCCCC4)cc3Cl)CC2)c1	> 75%
CCN(Cc1ccc(N2CCOCC2)cc1)C(=O)n1cc(C)cn1	< 25%
Cc1cnn(C(=O)N2CCCN(Cc3cccc(Oc4ccccc4)c3)CC2)c1	< 25%

Now look at this one.
Query: Endpoint output: inhibition at 1 µM of COc1cccc(CN2CCN(C(=O)n3cc(C(F)(F)F)cn3)CC2)c1 . Value?
Response: > 75%
